- assay-info: qHTS assay to identify small molecule antagonists of the estrogen related receptor (ERR) signaling pathway from Tox21 library - cell viability counter screen (AID 1224834); further: nearly all actives have a fitted effect of over 30% in size
- details: ERR reporter cells viability, CellTiter-Fluor, 17.5 h; series mostly up to 92.4 µM
Results filed as inconclusive are left out. Calls of active or inactive are those of the source. The call rests on the fitted dose curve; in most records, active means well fitted cell-killing curve with a large enough effect in the repeat runs; inconclusive means weak or mixed curves; inactive means flat fitted curve, though single readings scatter.
// one of true (active), false (inactive), no free text

| compound | qualitative-label |
| --- | --- |
| CCCN(CC1CC1)c1c([N+](=O)[O-])cc(C(F)(F)F)cc1[N+](=O)[O-] | false |
| CC(C)N(CCC(C(N)=O)(c1ccccc1)c1ccccn1)C(C)C (stereo not given) | false |
| CCc1ccc(C(=O)NN(C(=O)c2cc(C)cc(C)c2)C(C)(C)C)cc1 | true |
| O=C(NC(=O)c1c(F)cccc1F)Nc1ccc(OC(F)(F)C(F)OC(F)(F)F)c(Cl)c1 (stereo not given) | false |

// next entry
Query string: Hey, what did the test say about `Clc1cc(Cl)c(Cl)c(Cl)c1` ?
Result string: false

====

- assay-info: qHTS assay to identify small molecule antagonists of the farnesoid-X-receptor (FXR) signaling pathway - cell viability counter screen (AID 743221); further: on the % scale 0 is the no-effect control and ±100 the full control effect; nearly all actives have a fitted effect of over 50% in size
- details: FXR-bla HEK293T viability, CellTiter-Glo luminescence, 16 h; series mostly up to 62.6 µM
Results filed as inconclusive are left out. The source made the active and inactive calls. Calls come from the whole dose curve; as a rule, active = well fitted cell-killing curve with a large enough effect in the repeat runs (not every such curve was filed as active); inconclusive = weak or mixed curves, or effect the other way; inactive = no such curve, though single readings can be large or run the other way.
Select the correct class. Options are t for active, f for inactive and nothing else.

Example entries begin here.
| compound | qualitative-label |
| --- | --- |
| ClCC(Br)CBr (stereo not given) | f |
| O=C1c2ccccc2C(=O)C1C(=O)C(c1ccccc1)c1ccccc1 | f |
| C=CC(=O)OC | f |

Query string: Answer briefly: the call reported for `C=CC(=O)NCNC(=O)C=C` in this assay.
Result string: f

Query string: Recorded test outcome, item Clc1ccc(C(OCCN2CCCCC2)c2ccccc2)cc1 (stereo not given)
Result string: f

Query string: // outcome(item) with item = `O=C(O)c1ccccc1C(=O)Nc1cccc2ccccc12`
Result string: f

====

- assay-info: qHTS assay for identifying genotoxic compounds that show differential cytotoxicity against isogenic chicken DT40 cell lines with known DNA damage response pathways - Rad54/Ku70 mutant cell line (AID 743015); further: nearly all actives have a fitted effect of over 60% in size
- details: DT40 Rad54/Ku70 mutant viability, CellTiter-Glo, 40 h; series mostly up to 66.8 µM
Records with an inconclusive call do not appear. Activity calls are given as the source filed them. Calls come from the whole dose curve; as a rule, active = well fitted cell-killing curve with a large enough effect in the repeat runs; inconclusive = weak or mixed curves; inactive = no such curve, though single readings can be large or run the other way.
Tick one outcome: active, inactive

Answered cases to consult:
| molecule | qualitative-label |
| --- | --- |
| CCCCC(O)(Cn1cncn1)c1ccc(Cl)cc1Cl (configuration not stated) | active |
| CCC(Br)(CC)C(=O)NC(N)=O | inactive |
| CCOc1ccc(C(C)(C)COCc2cccc(Oc3ccccc3)c2)cc1 | inactive |

Note: attention shifts to another entry.
Query string: What outcome does the record of this test show for O=C(NC(=O)c1c(F)cccc1F)Nc1ccc(OC(F)(F)C(F)OC(F)(F)F)c(Cl)c1 (configuration not stated) ?
Result string: active

====

- assay-info: qHTS RealTime-Glo MT Cell Viability Assay in HepG2 cells - 0 hour (AID 1224889); further: on the % scale 0 is the no-effect control and ±100 the full control effect; nearly all actives have a fitted effect of over 50% in size
- details: RealTime-Glo luminescence; series mostly up to 76.8 µM
Inconclusive results are not listed. The source made the active and inactive calls. The call rests on the fitted dose curve; in most records, active means well fitted cell-killing curve with a large enough effect in the repeat runs; inconclusive means weak or mixed curves, or effect the other way; inactive means flat fitted curve, though single readings scatter.
property-name: outcome

Here is how some compounds turned out for outcome.
| compound | outcome |
| --- | --- |
| O=[N+]([O-])c1ccccc1CCl | inactive |
| Cc1ccccc1CCl | inactive |
| CCOS(C)(=O)=O | inactive |
| CC1CC(CC2CCC(N)C(C)C2)CCC1N (centres undefined) | inactive |
| CNC(C)Cc1ccccc1OC (centres undefined) | inactive |
| CC(Cl)C(C)Cl (centres undefined) | inactive |

Recorded result, `c1ccoc1` , outcome: inactive

# outcome of `Clc1cc(Cl)c(Cl)c(Cl)c1` = inactive

Field outcome (entry `Clc1cccc2ccccc12` ) reads inactive

Sure, the documented outcome for `COc1c(C(C)(C)C)cc([N+](=O)[O-])c(C)c1[N+](=O)[O-]` is inactive

Looking up `CCCCOC(=O)c1ccccc1C(=O)OCc1ccccc1` , I see its outcome listed as inactive

Quick note, outcome for CC(C)(C)C(O)C(Oc1ccc(Cl)cc1)n1cncn1 (centres undefined) landed at inactive

`CCOc1ccc(C(C)(C)COCc2cccc(Oc3ccccc3)c2)cc1` has a reported outcome of inactive

Sure, the documented outcome for `O=C(NC(=O)c1c(F)cccc1F)Nc1cc(Cl)c(Oc2ncc(C(F)(F)F)cc2Cl)c(Cl)c1` is inactive

====

- assay-info: qHTS assay to identify small molecule agonists of H2AX (AID 1224845); further: on the % scale 0 is the no-effect control and ±100 the full control effect
- details: CHO-K1 phospho-H2AX Ser139 HTRF, 3 h; series mostly up to 154 µM
Inconclusive results are not listed. Calls of active or inactive are those of the source. Calls come from the whole dose curve; as a rule, active = well fitted activation curve with a large enough effect in the signal ratio in the repeat runs (not every such curve was filed as active); inconclusive = weak or mixed curves; inactive = flat fitted curve, though single readings scatter; the % refers to the signal ratio.
I would appreciate it if you answered using one of these outcomes: y for active, n for inactive

Query string: What classification did CCC(C)(NC(=O)c1cc(Cl)c(C)c(Cl)c1)C(=O)CCl (configuration not stated) end up with in this test?
Result string: n

Query string: Which outcome was entered for the molecule `CCCCCCCCOC(=O)c1ccc(C(=O)OCCCCCCCC)c(C(=O)OCCCCCCCC)c1` in this test?
Result string: n

====

- assay-info: qHTS assay to identify small molecule that activate the aryl hydrocarbon receptor (AhR) signaling pathway - cell viability counter screen (AID 743086); further: nearly all actives have a fitted effect of over 45% in size
- details: HepG2-AhR-luc viability, CellTiter-Fluor, 24 h; series mostly up to 70.3 µM
Records with an inconclusive call do not appear. Calls of active or inactive are those of the source. Calls follow the shape of the dose curve; as a rule, active = well fitted cell-killing curve with a large enough effect in the repeat runs; inconclusive = weak or mixed curves, or effect the other way; inactive = flat fitted curve, though single readings scatter.
Outcome (select one): t = active, f = inactive

| compound | qualitative-label |
| --- | --- |
| NC(=O)CI | f |
| CN1C[C@H](CNC(=O)OCc2ccccc2)C[C@@H]2c3cccc4c3c(cn4C)C[C@H]21 | t |
| O=C(NCc1cccnc1)Nc1ccc([N+](=O)[O-])cc1 | f |
| COC(=O)c1cncn1C(C)c1ccccc1 (stereo not given) | f |

Query string: Query: recorded result category for `CCOP(O)OCC` in this test
Result string: f

Query string: Called result for `C=CC[C@]1(O)CC[C@H]2[C@@H]3CCC4=CC(=O)CCC4=C3C=C[C@@]21C`
Result string: f

====

- assay-info: qHTS assay to identify small molecule agonists of the endoplasmic reticulum stress response signaling pathway - cell viability counter screen (AID 1159517); further: nearly all actives have a fitted effect of over 50% in size
- details: ESRE-bla HeLa viability, CellTiter-Glo luminescence, 5 h; series mostly up to 61 µM
- Source text: U.S. Tox21 Program National Center for Advancing Translational Sciences [NCATS] NIH Chemical Genomics Center [NCGC] U.S. Environmental Protection Agency [EPA] National Institutes of Environmental Health Sciences [NIEHS] National Toxicology Program [NTP] U.S. Food and Drug Administration [FDA] Tox21 Assay Overview: Endoplasmic Reticulum (ER) plays an important role in cellular signaling, protein folding/maturation, stress response, lipid biosynthesis, calcium storage and release etc. […]
Records with an inconclusive call do not appear. Activity calls are given as the source filed them. Calls follow the shape of the full dose curve.
// one of 1.0 (active), 0.0 (inactive), no free text

Example results:
| compound | qualitative-label |
| --- | --- |
| CCCN(CCCl)c1c([N+](=O)[O-])cc(C(F)(F)F)cc1[N+](=O)[O-] | 0.0 |
| CCCN(CCC)c1c([N+](=O)[O-])cc(S(C)(=O)=O)cc1[N+](=O)[O-] | 0.0 |
| c1ccoc1 | 0.0 |

Query string: Test call for this compound, please: CCCCC(CC)COP(=O)(Oc1ccccc1)Oc1ccccc1 (configuration not stated)
Result string: 0.0

Query string: What outcome does the record of this test show for `CS/C(C)=N/OC(=O)N(C)SN(C)C(=O)O/N=C(\C)SC` ?
Result string: 0.0

Query string: What classification did `CCCCc1c(C)nc(NCC)nc1OS(=O)(=O)N(C)C` end up with in this test?
Result string: 0.0

Query string: // param item: `CC(C)(C)c1cc([N+](=O)[O-])cc([N+](=O)[O-])c1O` ; yields the recorded call
Result string: 0.0

Query string: Hi, do you know how `O=NN1CCNCC1` came out in this test?
Result string: 0.0

Query string: Identify the outcome logged in this assay for the compound shown: `O=C=Nc1ccc(Cl)cc1`
Result string: 0.0

Query string: // outcome(item) with item = `CC(C)(OO)c1ccccc1`
Result string: 1.0

Query string: Which outcome was entered for the compound `NNC(=O)c1cccnc1` in this test?
Result string: 0.0

Query string: In this assay, the call recorded for `Oc1ccc(Cl)c(Cl)c1Cl` was what?
Result string: 0.0

Query string: What outcome does the record of this test show for `CCn1cc[n+](C)c1` ?
Result string: 0.0

Query string: // param item: `COc1ccc(-c2ccccc2)cc1NNC(=O)OC(C)C` ; yields the recorded call
Result string: 0.0

Query string: Dear all, I need the recorded test outcome for `N#Cc1cc(I)c(O)c(I)c1` , thank you.
Result string: 0.0

Query string: For `O=[N+]([O-])c1cc(C(F)(F)F)cc([N+](=O)[O-])c1Cl` , what call appears in the results of this test?
Result string: 0.0

Query string: Answer briefly: the call reported for CC(C)N(CCC(C(N)=O)(c1ccccc1)c1ccccn1)C(C)C (configuration not stated) in this assay.
Result string: 0.0
